Origin of measurements: patent US10774051B2

# Target of assay: human P2X7 receptor (Homo sapiens, UniProt Q99572, R270H/Y155H)
# Procedure text: Evaluation of human P2X7 receptor inhibitory activity (Yo-Pro uptake, BzATP stimulation, FLIPR TETRA)
# Type: cell-based
# Particulars: 1321N1 cells stably expressing human P2X7 receptor; BzATP stimulation, Yo-Pro uptake; read-out: IC50 (antagonistic activity for the human P2X7 receptor), class symbol
Recorded endpoint: IC50

Incoming: Complete the entry with IC50 for COc1cc(Nc2nc(=O)c(OC)cn2Cc2cc(F)cc(F)c2)c(C)cc1Cl [Compound I-0510]
Outgoing: < 0.01 µM

Incoming: // fetch IC50 given entry COc1cn(Cc2ccccc2)c(Nc2cc3sc(C)nc3cc2C)nc1=O [Compound I-0431]
Outgoing: 0.01 to 0.1 µM

Incoming: Please give the documented IC50 of COc1cn(Cc2ccccc2)c(Nc2cc(C(N)=O)ccc2Cl)nc1=O [Compound I-0181]
Outgoing: 0.5 to 1 µM

Incoming: Identify measured IC50 associated with CCc1cc2c(cc1Nc1nc(=O)c(OC)cn1Cc1ccc(F)cc1)CCC2 [Compound I-0163]
Outgoing: < 0.01 µM

Incoming: Fill in IC50 for record COc1cn(Cc2ccccc2)c(Nc2cc(-c3nc4ncccc4o3)ccc2C)nc1=O [Compound I-0416]
Outgoing: 0.01 to 0.1 µM

Incoming: Quickly give me recorded IC50 for COc1cn(Cc2ccc(F)c(Cl)c2)c(Nc2cc(C)c(C)cc2C)nc1=O [Compound I-0243]
Outgoing: < 0.01 µM

Incoming: Indicate its recorded IC50; the molecule in question is CCc1cc2c(cc1Nc1nc(=O)c(OC)cn1Cc1ccccc1Cl)CCC2 [Compound I-0194]
Outgoing: 0.01 to 0.1 µM

Incoming: Consider the molecule COc1cn(Cc2cc(F)cc(F)c2)c(Nc2ccc(OC(C)C)cc2C)nc1=O [Compound I-0531] . State its measured IC50.
Outgoing: 0.01 to 0.1 µM
